- PROCEDURE SUMMARY: Solubility in water at 25℃
- Assay type: physicochemical
- ASSAY SETUP: H2O

>  <CHEMICAL STRING>
CCCCCCOC(=O)NC(=N)c1ccc(NCc2nc3cc(C(=O)N(CCC(=O)OCC)c4ccccn4)ccc3n2C)cc1

>  <UNIT INFO>
µg/mL

>  <solubility>
1800

$$$$
